The measured values listed here are drawn from patent US20190382488A1.

target: T1, recombinant human CD8 (rhCD8) (human, UniProt P01732 22-182); assay: SPR (BIAcore), minibody captured via anti-human IgG Fc, hCD8 analyte at 50 nM
T1 construct: Soluble purified recombinant protein; also called purified recombinant human CD8 protein; soluble CD8
T1 sequence (P01732 22-182 limits assumed): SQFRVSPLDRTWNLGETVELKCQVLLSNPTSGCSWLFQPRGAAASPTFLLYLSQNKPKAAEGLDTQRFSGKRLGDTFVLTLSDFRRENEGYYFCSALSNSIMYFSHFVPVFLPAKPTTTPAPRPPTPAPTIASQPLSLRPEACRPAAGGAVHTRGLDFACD
Response field label takes 1 (yes) when Kd is strictly below 2 nM and 0 (no) in all other cases.

Please let me know if IAb_Mb2d_CD8 (other, also called variant 2d) QVQLVQSGAEVKKPGATVKISCKVSGFNIKDTYIHFVQQAPGKGLEWIGRIDPANDNTLYASKFQGKATITADTSTDTAYMELSSLRSEDTAVYYCGRGYGYYVFDHWGQGTLVTVSGSTSGGGSGGGSGGGGSSDVQITQSPSSLSASVGDRVTITCRTSRSISQYLAWYQQKPGKVPKLLIYSGSTLQSGVPSRFSGSGSGTDFTLTISSLQPEDVATYYCQQHNENPLTFGGGTKVEIKEPKSCDKTHTCPPCGGGSSGGGSGGQPREPQVYTLPPSRDELTKNQVSLTCLVKGFYPSDIAVEWESNGQPENNYKTTPPVLDSDGSFFLYSKLTVDKSRWQQGNVFSCSVMHEALHNHYTQKSLSLSPGK shows Kd below 2 nM.
0 (no)

Please let me know if IAb_Mb2c_CD8 (other, also called variant 2c) QVQLVQSGAEVKKPGATVKISCKVSGFNIKDTYIHFVQQAPGKGLEWIGRIDPANDNTLYASKFQGKATITADTSTDTAYMELSSLRSGDTAVYYCGRGYGYYVFDHWGQGTLVTVSSGSTSGGGSGGGSGGGGSSDVQITQSPSSLSASVGDRVTITCRTSRSISQYLAWYQQKPGKVPKLLIYSGSTLQSGVPSRFSGSGSGTDFTLTISSLQPEDVATYYCQQHNENPLTFGGGTKVEIKEPKSCDKTHTCPPCGGGSSGGGSGGQPREPQVYTLPPSRDELTKNQVSLTCLVKGFYPSDIAVEWESNGQPENNYKTTPPVLDSDGSFFLYSKLTVDKSRWQQGNVFSCSVMHEALHNHYTQKSLSLSPGK shows Kd below 2 nM.
0 (no)

Please let me know if IAb_Mb1a_CD8 (other, also called variant 1a) DVQITQSPSSLSASVGDRVTITCRTSRSISQYLAWYQQKPGKVPKLLIYSGSTLQSGVPSRFSGSGSGTDFTLTISSLQPEDVATYYCQQHNENPLTFGGGTKVEIKGSTSGGGSGGGSGGGGSSEVQLVESGGGLVQPGGSLRLSCAASGFNIKDTYIHFVRQAPGKGLEWIGRIDPANDNTLYASKFQGKATISADTSKNTAYLQMNSLRAGDTAVYYCGRGYGYYVFDHWGQGTLVTVSSEPKSCDKTHTCPPCGGGSSGGGSGGQPREPQVYTLPPSRDELTKNQVSLTCLVKGFYPSDIAVEWESNGQPENNYKTTPPVLDSDGSFFLYSKLTVDKSRWQQGNVFSCSVMHEALHNHYTQKSLSLSPGK shows Kd below 2 nM.
1 (yes)

Please let me know if IAb_Mb1b_CD8 (other, also called IAb M1b CD8) DVQITQSPSSLSASVGDRVTITCRTSRSISQYLAWYQQKPGKVPKLLIYSGSTLQSGVPSRFSGSGSGTDFTLTISSLQPEDVATYYCQQHNENPLTFGGGTKVEIKGSTSGGGSGGGSGGGGSSEVQLVESGGGLVQPGGSLRLSCAASGFNIKDTYIHFVRQAPGKGLEWIGRIDPANDNTLYASKFQGKATISADTSKNTAYLQMNSLRAEDTAVYYCGRGYGYYVFDHWGQGTLVTVSSEPKSCDKTHTCPPCGGGSSGGGSGGQPREPQVYTLPPSRDELTKNQVSLTCLVKGFYPSDIAVEWESNGQPENNYKTTPPVLDSDGSFFLYSKLTVDKSRWQQGNVFSCSVMHEALHNHYTQKSLSLSPGK shows Kd below 2 nM.
1 (yes)

Please let me know if IAb_Mb1d_CD8 (other, also called variant 1d) DVQITQSPSSLSASVGDRVTITCRTSRSISQYLAWYQQKPGKVPKLLIYSGSTLQSGVPSRFSGSGSGTDFTLTISSLQPEDVATYYCQQHNENPLTFGGGTKVEIKGSTSGGGSGGGSGGGGSSQVQLVQSGAEVKKPGATVKISCKVSGFNIKDTYIHFVQQAPGKGLEWIGRIDPANDNTLYASKFQGKATITADTSTDTAYMELSSLRSEDTAVYYCGRGYGYYVFDHWGQGTLVTVSEPKSCDKTHTCPPCGGGSSGGGSGGQPREPQVYTLPPSRDELTKNQVSLTCLVKGFYPSDIAVEWESNGQPENNYKTTPPVLDSDGSFFLYSKLTVDKSRWQQGNVFSCSVMHEALHNHYTQKSLSLSPGK shows Kd below 2 nM.
0 (no)

Please let me know if IAb_Mb2b_CD8 (other, also called IAb M2b CD8) EVQLVESGGGLVQPGGSLRLSCAASGFNIKDTYIHFVRQAPGKGLEWIGRIDPANDNTLYASKFQGKATISADTSKNTAYLQMNSLRAEDTAVYYCGRGYGYYVFDHWGQGTLVTVSSGSTSGGGSGGGSGGGGSSDVQITQSPSSLSASVGDRVTITCRTSRSISQYLAWYQQKPGKVPKLLIYSGSTLQSGVPSRFSGSGSGTDFTLTISSLQPEDVATYYCQQHNENPLTFGGGTKVEIKEPKSCDKTHTCPPCGGGSSGGGSGGQPREPQVYTLPPSRDELTKNQVSLTCLVKGFYPSDIAVEWESNGQPENNYKTTPPVLDSDGSFFLYSKLTVDKSRWQQGNVFSCSVMHEALHNHYTQKSLSLSPGK shows Kd below 2 nM.
0 (no)

Please let me know if IAb_Mb2a_CD8 (other, also called variant 2a) EVQLVESGGGLVQPGGSLRLSCAASGFNIKDTYIHFVRQAPGKGLEWIGRIDPANDNTLYASKFQGKATISADTSKNTAYLQMNSLRAGDTAVYYCGRGYGYYVFDHWGQGTLVTVSSGSTSGGGSGGGSGGGGSSDVQITQSPSSLSASVGDRVTITCRTSRSISQYLAWYQQKPGKVPKLLIYSGSTLQSGVPSRFSGSGSGTDFTLTISSLQPEDVATYYCQQHNENPLTFGGGTKVEIKEPKSCDKTHTCPPCGGGSSGGGSGGQPREPQVYTLPPSRDELTKNQVSLTCLVKGFYPSDIAVEWESNGQPENNYKTTPPVLDSDGSFFLYSKLTVDKSRWQQGNVFSCSVMHEALHNHYTQKSLSLSPGK shows Kd below 2 nM.
0 (no)

Please let me know if IAb_Mb1c_CD8 (other, also called variant 1c) DVQITQSPSSLSASVGDRVTITCRTSRSISQYLAWYQQKPGKVPKLLIYSGSTLQSGVPSRFSGSGSGTDFTLTISSLQPEDVATYYCQQHNENPLTFGGGTKVEIKGSTSGGGSGGGSGGGGSSQVQLVQSGAEVKKPGATVKISCKVSGFNIKDTYIHFVQQAPGKGLEWIGRIDPANDNTLYASKFQGKATITADTSTDTAYMELSSLRSGDTAVYYCGRGYGYYVFDHWGQGTLVTVSSEPKSCDKTHTCPPCGGGSSGGGSGGQPREPQVYTLPPSRDELTKNQVSLTCLVKGFYPSDIAVEWESNGQPENNYKTTPPVLDSDGSFFLYSKLTVDKSRWQQGNVFSCSVMHEALHNHYTQKSLSLSPGK shows Kd below 2 nM.
0 (no)
